testedTarget: T1, extracellular domain of rhesus monkey BCMA (rhesus monkey, UniProt F7FFA0 1-53)
T1 construct: extracellular domain; also called RhBCMA
T1 sequence (F7FFA0 entry or part of it): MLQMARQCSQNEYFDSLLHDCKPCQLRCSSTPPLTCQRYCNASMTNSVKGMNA
assayOverview: Octet BLI; Fab 200 nM
So basically, if Kd comes in under 5 nM it's T, and if it's 5 nM or more it's F.

Examples with answers:
INPUT: Identify whether the binder AB200-R1H32-R2Vk10 (Fab, V domains shown) VH: QVQLVQSGAEVKKPGSSVKVSCKASGGTFSNYWMHWVRQAPGQGLEWMGATYRSHSDTYYNQKFKSRVTITADKSTSTAYMELSSLRSEDTAVYYCARGAIYHGYDVIDNWGQGTLVTVSS VL: DIQMTQSPSSLSASVGDRVTITCRASQSISSYLNWYQQKPGKAPKLLIYAASSLQSGVPSRFSGSGSGTDFTLTISSLQPEDFATYYCQQYRRIPWTFGQGTKLEIKR records Kd below 5 nM.
OUTPUT: F

INPUT: Identify whether the binder AB200-R1H32-R2Vk22 (Fab, V domains shown) VH: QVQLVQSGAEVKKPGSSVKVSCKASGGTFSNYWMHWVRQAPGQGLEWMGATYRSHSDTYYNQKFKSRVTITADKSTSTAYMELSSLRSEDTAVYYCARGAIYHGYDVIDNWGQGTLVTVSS VL: DIQMTQSPSSLSASVGDRVTITCRASQSISSYLNWYQQKPGKAPKLLIYATSNLQSGVPSRFSGSGSGTDFTLTISSLQPEDFATYYCQQYRKIPWSFGQGTKLEIKR records Kd below 5 nM.
OUTPUT: F

INPUT: Identify whether the binder AB200-R1H32-R2Vk13 (Fab, V domains shown) VH: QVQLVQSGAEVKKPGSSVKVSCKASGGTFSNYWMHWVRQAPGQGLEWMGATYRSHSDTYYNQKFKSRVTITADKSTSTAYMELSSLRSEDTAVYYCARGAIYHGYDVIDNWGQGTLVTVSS VL: DIQMTQSPSSLSASVGDRVTITCRASQSISSYLNWYQQKPGKAPKLLIYAASSLQSGVPSRFSGSGSGTDFTLTISSLQPEDFATYYCQQFRKIPWTFGQGTKLEIKR records Kd below 5 nM.
OUTPUT: F

---
INPUT: Identify whether the binder AB200-R1H32-R2Vk42 (Fab, V domains shown) VH: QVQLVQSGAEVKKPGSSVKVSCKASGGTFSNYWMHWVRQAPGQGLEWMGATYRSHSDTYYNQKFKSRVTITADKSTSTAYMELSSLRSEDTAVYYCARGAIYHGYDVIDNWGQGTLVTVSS VL: DIQMTQSPSSLSASVGDRVTITCRASQSISSYINWYQQKPGKAPKLLIYATSNIQSGVPSRFSGSGSGTDFTLTISSLQPEDFATYYCQQYRKIPWSFGQGTKLEIKR records Kd below 5 nM.
OUTPUT: F

INPUT: Identify whether the binder AB200-R1H32-R2Vk16 (Fab, V domains shown) VH: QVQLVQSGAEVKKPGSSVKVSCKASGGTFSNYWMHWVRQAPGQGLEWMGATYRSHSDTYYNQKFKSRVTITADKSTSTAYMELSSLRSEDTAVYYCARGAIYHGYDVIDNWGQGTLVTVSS VL: DIQMTQSPSSLSASVGDRVTITCRASQSISSYINWYQQKPGKAPKLLIYAASSLQSGVPSRFSGSGSGTDFTLTISSLQPEDFATYYCQQFRRLPWTFGQGTKLEIKR records Kd below 5 nM.
OUTPUT: T

INPUT: Identify whether the binder AB200-R1H32-R2Vk38 (Fab, V domains shown) VH: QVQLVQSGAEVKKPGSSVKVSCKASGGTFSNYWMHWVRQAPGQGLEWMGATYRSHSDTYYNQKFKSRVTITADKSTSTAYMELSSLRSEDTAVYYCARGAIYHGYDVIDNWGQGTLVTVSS VL: DIQMTQSPSSLSASVGDRVTITCRASQSISSYINWYQQKPGKAPKLLIYATSNLQSGVPSRFSGSGSGTDFTLTISSLQPEDFATYYCQQFRKIPWTFGQGTKLEIKR records Kd below 5 nM.
OUTPUT: F

INPUT: Identify whether the binder AB200-R1H32-R2Vk35 (Fab, V domains shown) VH: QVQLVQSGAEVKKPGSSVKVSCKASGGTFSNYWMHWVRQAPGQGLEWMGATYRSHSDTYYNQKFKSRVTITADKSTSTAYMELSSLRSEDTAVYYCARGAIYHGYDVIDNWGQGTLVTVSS VL: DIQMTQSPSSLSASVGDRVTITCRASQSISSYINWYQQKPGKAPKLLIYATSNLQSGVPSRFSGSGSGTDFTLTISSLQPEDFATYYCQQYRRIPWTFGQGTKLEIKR records Kd below 5 nM.
OUTPUT: T

INPUT: Identify whether the binder AB200-R1H32-R2Vk21 (Fab, V domains shown) VH: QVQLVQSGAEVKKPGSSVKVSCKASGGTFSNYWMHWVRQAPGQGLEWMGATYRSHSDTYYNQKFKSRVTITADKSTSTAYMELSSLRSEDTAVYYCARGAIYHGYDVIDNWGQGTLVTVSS VL: DIQMTQSPSSLSASVGDRVTITCRASQSISSYLNWYQQKPGKAPKLLIYATSNLQSGVPSRFSGSGSGTDFTLTISSLQPEDFATYYCQQFRRLPWTFGQGTKLEIKR records Kd below 5 nM.
OUTPUT: T

INPUT: Identify whether the binder AB200-R1H32-R2Vk4 (Fab, V domains shown) VH: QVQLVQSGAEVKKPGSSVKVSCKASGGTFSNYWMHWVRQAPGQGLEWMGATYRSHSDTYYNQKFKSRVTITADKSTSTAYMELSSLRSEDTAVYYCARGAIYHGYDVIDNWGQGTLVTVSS VL: DIQMTQSPSSLSASVGDRVTITCRASQSISSYLNWYQQKPGKAPKLLIYATSNIQSGVPSRFSGSGSGTDFTLTISSLQPEDFATYYCQQFRKLPWSFGQGTKLEIKR records Kd below 5 nM.
OUTPUT: F
